Target: PDE5A1 (Homo sapiens)
Construct: from tissue; host or cells: human platelets from fresh donor blood (10,000 x g supernatant of sonicated lysate)
Assay: Inhibition of type 5 phosphodiesterase (PDE5) activity, modified SPA test with human platelet lysate
Format: biochemical
Conditions: 0.5 μM cGMP, read-out: PDE5A1 inhibitory values [measured as −log IC50 (mol/l)] (converted)
MEASURED_PROPERTY: IC50

MOLECULE	TARGET_OR_SYSTEM	IC50
CCOC(=O)N1CCC(NC(=O)c2c(C)[nH]c3c(-c4cc(F)ccc4OCC4CC4)ncnc23)CC1	PDE5A1 (Homo sapiens)	< 1 nM
COCC(=O)N[C@H]1CC[C@H](NC(=O)c2c(C)[nH]c3c(-c4cc(OC)ccc4OCC4CC4)ncnc23)CC1	PDE5A1 (Homo sapiens)	< 1 nM
COc1cc(-c2ncnc3c(C(=O)NC4CCN(C(=O)CO)CC4)c(C)[nH]c23)c(OCC2CC2)cc1F	PDE5A1 (Homo sapiens)	< 1 nM
Cc1[nH]c2c(-c3ccc(F)cc3OCC3CC3)ncnc2c1C(=O)N[C@H]1CC[C@@H](NC(=O)CO)CC1	PDE5A1 (Homo sapiens)	< 1 nM
Cc1[nH]c2c(-c3c(OCC4CC4)ccc4c3OCO4)ncnc2c1C(=O)N[C@@H]1CCN(C(=O)[C@H](C)O)C1	PDE5A1 (Homo sapiens)	< 1 nM

Query block: Retrieve IC50 measured for COc1ccc(-c2ncnc3c(C(=O)N[C@@H]4CN(C(C)=O)C[C@H]4O)c(C)[nH]c23)c(OCC2CC2)c1 (relative stereo) and print it.
Result block: < 1 nM

Query block: Retrieve IC50 measured for Cc1ccc(OCC2CC2)c(-c2ncnc3c(C(=O)N[C@H]4CCC[C@H]4O)c(C)[nH]c23)c1 and print it.
Result block: 1 to 10 nM

----------
Biological target: PDE5A1 (Homo sapiens)
Construct: from tissue; host or cells: human platelets from fresh donor blood (10,000 x g supernatant of sonicated lysate)
Test: Inhibition of type 5 phosphodiesterase (PDE5) activity, modified SPA test with human platelet lysate
Format: biochemical
Conditions: 0.5 μM cGMP, read-out: PDE5A1 inhibitory values [measured as −log IC50 (mol/l)] (converted)
MEASURED_PROPERTY: IC50

Before answering, review these 2 worked examples.
MOLECULE	REPORTED_RESULT
COc1cc(-c2ncnc3c(C(=O)N[C@@H]4CCN(C(=O)CO)C4)c(C)[nH]c23)c(OCC2CC2)cc1F [Example F111]	< 1 nM
CC(=O)c1ccc(OCC2CC2)c(-c2ncnc3c(C(=O)N[C@H]4CC[C@H](NC(=O)CO)CC4)c(C)[nH]c23)c1 [Example F104]	< 1 nM

Query block: Retrieve IC50 measured for CCC(=O)N1CC[C@@H](NC(=O)c2c(C)[nH]c3c(-c4cc(OC)c(F)cc4OCC4CC4)ncnc23)[C@H](O)C1 (relative stereo) [Example E114] and print it.
Result block: < 1 nM

Query block: Retrieve IC50 measured for COCC(=O)N1CCC(NC(=O)c2c(C)[nH]c3c(-c4cc(C)ccc4OCC4CC4)nc(C)nc23)CC1 [Example E171] and print it.
Result block: < 1 nM

Query block: Retrieve IC50 measured for CCC(=O)N[C@H]1CC[C@H](NC(=O)c2c(C)[nH]c3c(-c4cc(CC)ccc4OCC4CC4)ncnc23)CC1 [Example E149] and print it.
Result block: < 1 nM

Query block: Retrieve IC50 measured for Cc1[nH]c2c(-c3cc(F)ccc3OCC3CC3)ncnc2c1C(=O)N[C@H]1CC[C@H](NC(=O)[C@H](C)O)CC1 [Example F26] and print it.
Result block: < 1 nM

----------
Attribute: IC50
Target: PDE4B1 (Homo sapiens)
Construct: made in house; host or cells: SF21 insect cells (baculovirus; pCRBac vector), 1000 x g supernatant of homogenate
Sequence (Q07343 whole entry): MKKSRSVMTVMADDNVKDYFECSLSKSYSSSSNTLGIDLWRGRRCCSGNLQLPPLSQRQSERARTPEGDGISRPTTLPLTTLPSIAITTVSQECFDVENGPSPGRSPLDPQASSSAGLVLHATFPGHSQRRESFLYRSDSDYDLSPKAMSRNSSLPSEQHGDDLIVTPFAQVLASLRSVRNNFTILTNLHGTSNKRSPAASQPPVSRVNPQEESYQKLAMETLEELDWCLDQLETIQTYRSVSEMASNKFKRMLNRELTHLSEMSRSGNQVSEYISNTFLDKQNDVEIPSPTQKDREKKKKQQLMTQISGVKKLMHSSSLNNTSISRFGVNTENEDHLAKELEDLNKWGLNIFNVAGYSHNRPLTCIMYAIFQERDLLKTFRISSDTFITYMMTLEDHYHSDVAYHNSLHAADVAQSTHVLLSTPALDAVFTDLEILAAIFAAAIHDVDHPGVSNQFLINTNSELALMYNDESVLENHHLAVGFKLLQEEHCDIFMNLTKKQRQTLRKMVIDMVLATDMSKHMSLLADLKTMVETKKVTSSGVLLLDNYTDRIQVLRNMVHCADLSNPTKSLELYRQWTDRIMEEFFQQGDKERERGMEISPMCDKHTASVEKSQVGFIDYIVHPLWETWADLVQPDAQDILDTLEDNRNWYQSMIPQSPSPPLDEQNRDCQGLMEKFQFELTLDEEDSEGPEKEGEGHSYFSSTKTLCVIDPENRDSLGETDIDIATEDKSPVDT
Assay: Inhibition of type 4 phosphodiesterase (PDE4) activity, modified SPA test with recombinant PDE4B1 expressed in SF21 insect cells
Type: biochemical
Settings: recombinant PDE4B1, 0.5 μM cAMP, read-out: PDE4B1 inhibitory values [measured as −log IC50 (mol/l)] (converted)

MOLECULE	IC50
Cc1ccc(OCC2CC2)c(-c2ncnc3c(C(=O)N[C@H]4CC[C@H](NC(=O)[C@H](C)O)CC4)c(C)[nH]c23)c1 [Example F54]	< 100 nM

Please examine the following record next.
Query block: Retrieve IC50 measured for CC(=O)N[C@H]1CC[C@@H](NC(=O)c2c(C)[nH]c3c(-c4cc(C)ccc4OCC4CC4)ncnc23)CC1 [Example E87] and print it.
Result block: < 100 nM

----------
Attribute: IC50
Biological target: PDE4B1 (Homo sapiens)
Construct: made in house; host or cells: SF21 insect cells (baculovirus; pCRBac vector), 1000 x g supernatant of homogenate
Assay: Inhibition of type 4 phosphodiesterase (PDE4) activity, modified SPA test with recombinant PDE4B1 expressed in SF21 insect cells
Format: biochemical
Settings: recombinant PDE4B1, 0.5 μM cAMP, read-out: PDE4B1 inhibitory values [measured as −log IC50 (mol/l)] (converted)

Before answering, review these 5 worked examples.
COMPOUND	IC50
CCC(=O)N[C@H]1C[C@@H](F)[C@H](NC(=O)c2c(C)[nH]c3c(-c4cc(C(F)F)ccc4OCC4CC4)ncnc23)C1 (relative stereo) [Example P100]	< 100 nM
CCC(=O)N1CCC(NC(=O)c2c(C)[nH]c3c(-c4cc(C)ccc4OCC4CC4)nc(C)nc23)CC1 [Example E170]	100 to 1000 nM
CCC(=O)N[C@H]1CC[C@@H](NC(=O)c2c(C)[nH]c3c(-c4cc(CC)ccc4OCC4CC4)ncnc23)CC1 [Example E152]	100 to 1000 nM
CC(=O)N[C@H]1CC[C@@H](NC(=O)c2c(C)[nH]c3c(-c4cc(F)ccc4OCC4CC4)ncnc23)CC1 [Example E45]	100 to 1000 nM
COCC(=O)N[C@H]1CC[C@H](NC(=O)c2c(C)[nH]c3c(-c4cc(C(F)F)ccc4OCC4CC4)ncnc23)[C@@H](C)C1 (relative stereo) [Example P141]	< 100 nM

Please examine the following record next.
Query block: GET IC50 where system = PDE4B1 (Homo sapiens) and item = COCC(=O)N1CCC(NC(=O)c2c(C)[nH]c3c(-c4cc(C(F)(F)F)ccc4OCC4CC4)ncnc23)CC1 [Example E92]
Result block: < 100 nM

----------
Target: PDE5A1 (Homo sapiens)
Construct: from tissue; host or cells: human platelets from fresh donor blood (10,000 x g supernatant of sonicated lysate)
Assay: Inhibition of type 5 phosphodiesterase (PDE5) activity, modified SPA test with human platelet lysate
Format: biochemical
Details: 0.5 μM cGMP, read-out: PDE5A1 inhibitory values [measured as −log IC50 (mol/l)] (converted)
Attribute: IC50

Before answering, review these 2 worked examples.
COMPOUND	TARGET_OR_SYSTEM	MEASURED_PROPERTY	REPORTED_RESULT
CC(=O)N1CCC(NC(=O)c2c(C)[nH]c3c(-c4cc(C(C)C)ccc4OCC4CC4)ncnc23)CC1	PDE5A1 (Homo sapiens)	IC50	< 1 nM
Cc1ccc(OCC2CC2)c(-c2ncnc3c(C(=O)N[C@H]4CC[C@H](NC(=O)[C@H](C)O)CC4)c(C)[nH]c23)c1	PDE5A1 (Homo sapiens)	IC50	< 1 nM

Please examine the following record next.
Query block: Retrieve IC50 measured for COc1ccc(-c2ncnc3c(C(=O)N[C@@H]4CN(C(=O)CO)C[C@H]4O)c(C)[nH]c23)c(OCC2CC2)c1 (relative stereo) and print it.
Result block: < 1 nM

----------
Target: PDE5A1 (Homo sapiens)
Construct: from tissue; host or cells: human platelets from fresh donor blood (10,000 x g supernatant of sonicated lysate)
Assay: Inhibition of type 5 phosphodiesterase (PDE5) activity, modified SPA test with human platelet lysate
Assay type: biochemical
Conditions: 0.5 μM cGMP, read-out: PDE5A1 inhibitory values [measured as −log IC50 (mol/l)] (converted)
Attribute: IC50

Before answering, review these 5 worked examples.
COMPOUND	TARGET_OR_SYSTEM	REPORTED_RESULT
Cc1[nH]c2c(-c3c(OCC4CC4)ccc4c3OCO4)ncnc2c1C(=O)NC1CN(C(=O)C(C)O)CC1O (mixture of isomers)	PDE5A1 (Homo sapiens)	< 1 nM
CC(=O)N[C@H]1CC[C@@H](NC(=O)c2c(C)[nH]c3c(-c4c(OCC5CC5)ccc5c4OCO5)ncnc23)CC1	PDE5A1 (Homo sapiens)	< 1 nM
COCC(=O)N[C@@H]1CC[C@@H](NC(=O)c2c(C)[nH]c3c(-c4cc(C(F)F)ccc4OCC4CC4)ncnc23)[C@H](F)C1 (relative stereo)	PDE5A1 (Homo sapiens)	< 1 nM
CCC(=O)N1CC[C@@H](NC(=O)c2c(C)[nH]c3c(-c4cc(OC)ccc4OCC4CC4)ncnc23)[C@H](O)C1 (relative stereo)	PDE5A1 (Homo sapiens)	< 1 nM
COCC(=O)N[C@H]1CC[C@@H](NC(=O)c2c(C)[nH]c3c(-c4cc(C)c(F)cc4OCC4CC4)ncnc23)CC1	PDE5A1 (Homo sapiens)	< 1 nM

Query block: Retrieve IC50 measured for CCC(=O)N1CCC(NC(=O)c2c(C)[nH]c3c(-c4ccc(OC)cc4OCC4CC4)ncnc23)CC1 and print it.
Result block: < 1 nM

Query block: Retrieve IC50 measured for CCC(=O)N[C@H]1CC[C@@H](NC(=O)c2c(C)[nH]c3c(-c4cc(OC)c(F)cc4OCC4CC4)ncnc23)CC1 and print it.
Result block: < 1 nM

Query block: Retrieve IC50 measured for CCC(=O)N1C[C@@H](NC(=O)c2c(C)[nH]c3c(-c4cc(C(F)F)ccc4OCC4CC4)ncnc23)C[C@@H]1C and print it.
Result block: 1 to 10 nM

Query block: Retrieve IC50 measured for COc1cc(-c2ncnc3c(C(=O)N[C@H]4CN(C(C)=O)CC[C@@H]4O)c(C)[nH]c23)c(OCC2CC2)cc1F (relative stereo) and print it.
Result block: < 1 nM

Query block: Retrieve IC50 measured for CC(=O)N[C@H]1CC[C@H](NC(=O)c2c(C)[nH]c3c(-c4cc(F)ccc4OCC4CC4)ncnc23)CC1 and print it.
Result block: < 1 nM

Query block: Retrieve IC50 measured for COc1ccc(OCC2CC2)c(-c2ncnc3c(C(=O)N[C@@H]4CN(C(C)=O)C[C@H]4O)c(C)[nH]c23)c1 (relative stereo) and print it.
Result block: 1 to 10 nM

Query block: Retrieve IC50 measured for Cc1[nH]c2c(-c3ccc(F)cc3OCC3CC3)ncnc2c1C(=O)N[C@@H]1CN(C(=O)CO)C[C@H]1O (relative stereo) and print it.
Result block: 1 to 10 nM

Query block: Retrieve IC50 measured for COc1ccc(OCC2CC2)c(-c2ncnc3c(C(=O)N[C@@H]4CCN(C(=O)CO)C[C@H]4O)c(C)[nH]c23)c1 (relative stereo) and print it.
Result block: < 1 nM

Query block: Retrieve IC50 measured for COCC(=O)N1CCC(NC(=O)c2c(C)[nH]c3c(-c4ccc(OC)cc4OCC4CC4)ncnc23)CC1 and print it.
Result block: < 1 nM

# credit: patent US9376442B2
